Reference source: the supplement of paper PMC10567573

B1: CDC25B (parent)
chain: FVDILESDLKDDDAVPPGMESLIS

variants of: B1; test: protein stability index of a GFP-peptide fusion (GPS, HEK-293T) (PSI 1-6); higher = more stable; conditions: c terminus: a fixed tail appended;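 further: lentivirally expressed fusions sorted by FACS into six bins by GFP to DsRed ratio, PSI derived from sequencing read proportions per bin multiplied by bin number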
Each entry below carries its reported protein stability index.
Respond numerically, and do not add a unit to the figure.

protein stability index reading for "F1V" : 4.08
